I'd appreciate it if you could supply CC50 values for the items below.
measurementDescription: in vitro
measurementContext: human
Quick note: give the figure in µM, leave out the unit.

Just so you know, measured CC50 for N=c1c2c(-c3ccccc3)c(-c3ccccc3)n(Cc3ccco3)c2ncn1CCCn1ccnc1 [F] came out at 25

Just so you know, measured CC50 for CCOc1ccc(NC(=O)CSc2nnc(COc3cccc(N(C)C)c3)n2-c2ccccc2)cc1 [K] came out at 98

Just so you know, measured CC50 for CCCN(C)c1c([N+](=O)[O-])cc([N+](=O)[O-])c2cccnc12 [A] came out at 30

Just so you know, measured CC50 for CC[C@@]1(O)C(=O)OCc2c1cc1n(c2=O)Cc2cc3ccccc3nc2-1 [C] came out at 20

Just so you know, measured CC50 for COc1cccc(C(CC(=O)c2ccc(Cl)cc2)C(C#N)C#N)c1 (stereo not drawn) [B] came out at 25

Just so you know, measured CC50 for COc1ccc(OC)c(NC(=O)CC(c2ccc(OC)cc2OC)S(=O)(=O)c2ccccc2)c1 (stereo not drawn) [I] came out at 32

Just so you know, measured CC50 for O=c1c2ccccc2nc(/C=C/c2ccc([N+](=O)[O-])o2)n1-c1cccc(C(F)(F)F)c1 [D] came out at 30

Just so you know, measured CC50 for O=C(Nc1ccc(Cl)c(Cl)c1)c1ccc([N+](=O)[O-])o1 [E] came out at 54

====

I'd appreciate it if you could supply IC50 values for the items below.
System: recombinant Zaire EBOV expressing green fluorescent protein (GFP-ZEBOV)
measurementDescription: microbe, parasite or virus in culture
Format: cell-based, EBOV (Zaire subtype, 1995 strain)
measurementContext: Zaire ebolavirus, Vero C1008, 48 h, read-out: GFP-ZEBOV IC50 (μM)
Quick note: give the figure in µM, leave out the unit.

Just so you know, measured IC50 for "O=c1c2ccccc2nc(/C=C/c2ccc([N+](=O)[O-])o2)n1-c1cccc(C(F)(F)F)c1" came out at 15.5

Just so you know, measured IC50 for COc1cccc(C(CC(=O)c2ccc(Cl)cc2)C(C#N)C#N)c1 (stereo not shown) came out at 10

Just so you know, measured IC50 for "CCCN(C)c1c([N+](=O)[O-])cc([N+](=O)[O-])c2cccnc12" came out at 7.5

Just so you know, measured IC50 for "O=C(Nc1ccc(Cl)c(Cl)c1)c1ccc([N+](=O)[O-])o1" came out at 14.5

Just so you know, measured IC50 for "Cc1ccc(N(c2ccc(C)cc2)c2cccnc2)cc1" came out at 20

Just so you know, measured IC50 for "N=c1c2c(-c3ccccc3)c(-c3ccccc3)n(Cc3ccco3)c2ncn1CCCn1ccnc1" came out at 15

Just so you know, measured IC50 for "CC[C@@]1(O)C(=O)OCc2c1cc1n(c2=O)Cc2cc3ccccc3nc2-1" came out at 10

====

measurementDescription: in vitro
measurementContext: African green monkey, GFP-ZEBOV CC50 (μM)
measuredProperty: CC50 (µM)
Quick note: give the figure in µM, leave out the unit.

Just so you know, measured CC50 for "CC[C@@]1(O)C(=O)OCc2c1cc1n(c2=O)Cc2cc3ccccc3nc2-1" came out at 29.5

Just so you know, measured CC50 for "N=c1c2c(-c3ccccc3)c(-c3ccccc3)n(Cc3ccco3)c2ncn1CCCn1ccnc1" came out at 48.5

Just so you know, measured CC50 for "Cc1ccc(N(c2ccc(C)cc2)c2cccnc2)cc1" came out at 22.6

Just so you know, measured CC50 for "CCCN(C)c1c([N+](=O)[O-])cc([N+](=O)[O-])c2cccnc12" came out at 15

Just so you know, measured CC50 for "O=C(Nc1ccc(Cl)c(Cl)c1)c1ccc([N+](=O)[O-])o1" came out at 40
